# Test system: RXF 393 renal
# protocolDescription: NCI-60 one-dose screen, 48 h (100 = growth as untreated, 0 = no growth, -100 = all killed)
# measurementSetup: 10 µM unless noted
This is part of a sample that, as a whole, favours compounds with a hit. Of some 83,000 tested, about 20% had one in any assay.
// assign Met if growth falls strictly below 70%, else Not met (ties count as Not met)

compound	labelClass
COc1ccc(-c2ccc(-c3ccc(C(=N)N)cc3)s2)cc1Cl	Met
CC(C)(Sc1cc(C(C)(C)C)c(OC(=O)CCCC(=O)O)c(C(C)(C)C)c1)Sc1cc(C(C)(C)C)c(OC(=O)CCCC(=O)O)c(C(C)(C)C)c1	Met
CSc1oc(C)nc1[P+](c1ccccc1)(c1ccccc1)c1ccccc1	Not met
O=C(Nc1ccccc1O)c1ccc(CNC(=O)c2sccc2Nc2ccnc(C(F)(F)F)c2)cc1	Met
N#Cc1ccc(O)c(C2=NCC(c3ccccc3)O2)c1 (configuration not stated)	Not met
Ic1ccc(OCCCCn2ccnc2)cc1	Met
COCCOc1cc2ncnc(N3CCN(c4cc(S(C)(=O)=O)c(C)cc4Cl)CC3)c2cc1OCCOC	Not met
